Attribution: paper PMC3346673

# Assay: Biodistribution of NBMI in plasma and tissues after oral gavage
# Format: in vivo, rat (Sprague Dawley)
# Experimental Setup: male, Sprague Dawley, rat, spleen, po, 100 mg kg^−1
Readout Label: concentration at 2 h (ng/g)
Respond with the bare value in ng/g.

Q: Tell me the measured concentration at 2 h of O=C(NCCS)c1cccc(C(=O)NCCS)c1 [NBMI, N,N′-bis(2-mercaptoethyl)isophthalamide] , please.
Result: 153

* * *

# Assay: Biodistribution of NBMI in plasma and tissues after oral gavage
# Format: in vivo, rat (Sprague Dawley)
# Experimental Setup: male, Sprague Dawley, rat, small intestine, po, 100 mg kg^−1
Readout Label: concentration at 2 h (ng/g)
The answer is to be given in ng/g; state only the numeric part.

Q: Name the reported concentration at 2 h value associated with the molecule O=C(NCCS)c1cccc(C(=O)NCCS)c1 [NBMI, N,N′-bis(2-mercaptoethyl)isophthalamide]
Result: 8530
